# Test protocol: in vitro
# Settings: human, Caco-2, CACO permeability PEBA
*1 amine or outer side, *2 acyl side, *3 side chain or, on linkers, in order; H or OH if unused. Where a SMILES comes first, the peptide text is derived from it. [ ]: non-standard residue; d: D form. Trp(1-(1,1-Me2-allyl)) = C=CC(C)(C)n1cc(C[C@H](N)C(=O)O)c2ccccc21; Ala(3R-Me,3-isobutenyl) = CC(C)=C[C@@H](C)[C@H](N)C(=O)O; X3 = C#CCOc1ccc([C@@H](OC)[C@H](N[*:1])C(=O)[*:2])cc1; NMeTrp(1-Me) = CN[C@@H](Cc1cn(C)c2ccccc12)C(=O)O; X1 = C#CCn1cc(C[C@H](N[*:1])C(=O)[*:2])c2ccccc21; NMeLeu(5-OH,4R) = CN[C@@H](C[C@@H](C)CO)C(=O)O; Phe(βR-OMe) = CO[C@H](c1ccccc1)[C@H](N)C(=O)O; Trp(1-Me) = Cn1cc(C[C@H](N)C(=O)O)c2ccccc21; NMeL = CN[C@@H](CC(C)C)C(=O)O; Pra = C#CC[C@H](N)C(=O)O
compounds and their reported Papp B→A

Compound	Unit string	Inequality operator	Papp B→A
C#CC[C@@H]1NC(=O)[C@H](CC(C)C)N(C)C(=O)[C@H](C(C)C)NC(=O)[C@H]([C@H](OC)c2ccccc2)NC(=O)[C@H](C)NC(=O)[C@H](C[C@@H](C)CO)N(C)C(=O)[C@H](Cc2cn(C)c3ccccc23)N(C)C1=O [Compound 20] (cyclo(A[Phe(βR-OMe)]V[NMeL][Pra][NMeTrp(1-Me)][NMeLeu(5-OH,4R)]))	×10⁻⁶ cm/s	=	36
CO[C@H](c1ccccc1)[C@@H]1NC(=O)[C@H](C)NC(=O)[C@H](C[C@@H](C)CO)N(C)C(=O)[C@H](Cc2cn(Cc3cn(CCCCCn4cc(Cn5cc(C[C@@H]6NC(=O)[C@H](C(C)C)NC(=O)[C@H](CC(C)C)N(C)C(=O)[C@H](C(C)C)NC(=O)[C@H]([C@H](OC)c7ccccc7)NC(=O)[C@H](C)NC(=O)[C@H](C[C@@H](C)CO)N(C)C6=O)c6ccccc65)nn4)nn3)c3ccccc23)NC(=O)[C@H](C(C)C)NC(=O)[C@H](CC(C)C)N(C)C(=O)[C@H](C(C)C)NC1=O [Compound 9]	×10⁻⁶ cm/s	<	0.28
CO[C@H](c1ccccc1)[C@@H]1NC(=O)[C@H](C)NC(=O)[C@H](C[C@@H](C)CO)N(C)C(=O)[C@H](Cc2cn(C)c3ccccc23)NC(=O)[C@H](CCC(=O)N(C)C)NC(=O)[C@H](CC(C)C)N(C)C(=O)[C@H](C(C)C)NC1=O [SI-74] (cyclo(A[Phe(βR-OMe)]V[NMeL]E(NMe2)[Trp(1-Me)][NMeLeu(5-OH,4R)]))	×10⁻⁶ cm/s	=	3.4
C=CC(C)(C)n1cc(C[C@@H]2NC(=O)[C@H]([C@H](C)C=C(C)C)NC(=O)[C@H](CC(C)C)N(C)C(=O)[C@H](C(C)C)NC(=O)[C@H]([C@H](OC)c3ccccc3)NC(=O)[C@H](C)NC(=O)[C@H](C[C@@H](C)CO)N(C)C2=O)c2ccccc21 [dCymC] (cyclo([Trp(1-(1,1-Me2-allyl))][NMeLeu(5-OH,4R)]A[Phe(βR-OMe)]V[NMeL][Ala(3R-Me,3-isobutenyl)]))	×10⁻⁶ cm/s	=	2.6
CO[C@H](c1ccccc1)[C@@H]1NC(=O)[C@H](C)NC(=O)[C@H](C[C@@H](C)CO)N(C)C(=O)[C@H](Cc2cn(C)c3ccccc23)N(C)C(=O)[C@H](CCC(=O)N(C)C)NC(=O)[C@H](CC(C)C)N(C)C(=O)[C@H](C(C)C)NC1=O [SI-76] (cyclo(A[Phe(βR-OMe)]V[NMeL]E(NMe2)[NMeTrp(1-Me)][NMeLeu(5-OH,4R)]))	×10⁻⁶ cm/s	=	10
C#CCOc1ccc([C@@H](OC)[C@@H]2NC(=O)[C@H](C)NC(=O)[C@H](C[C@@H](C)CO)N(C)C(=O)[C@H](Cc3cn(C)c4ccccc34)NC(=O)[C@H](C(C)C)NC(=O)[C@H](CC(C)C)N(C)C(=O)[C@H](C(C)C)NC2=O)cc1 [SI-38] (cyclo(A[X3]V[NMeL]V[Trp(1-Me)][NMeLeu(5-OH,4R)]))	×10⁻⁶ cm/s	=	18
C#CCn1cc(C[C@@H]2NC(=O)[C@H](C(C)C)NC(=O)[C@H](CC(C)C)N(C)C(=O)[C@H](C(C)C)NC(=O)[C@H]([C@H](OC)c3ccccc3)NC(=O)[C@H](C)NC(=O)[C@H](C[C@@H](C)CO)N(C)C2=O)c2ccccc21 [Compound 5] (cyclo(A[Phe(βR-OMe)]V[NMeL]V[X1][NMeLeu(5-OH,4R)]))	×10⁻⁶ cm/s	=	19
